# Assay: in vivo
# Parameters: species or system C57 mice
# Experimental Context: female, C57, mouse, po, 50 mg/kg
For each entry below, report its AUC(0-t) value.
Give the quantity in ng·h/mL, number only.

Entry C=CC(=O)N1[C@@H]2CC[C@H]1C[C@H](Oc1cc3c(Nc4ccc(Oc5ccn6ncnc6c5)c(C)c4)ncnc3cn1)C2 , AUC(0-t) reported as 32100

Entry C=CC(=O)N1[C@@H]2CC[C@H]1C[C@@H](Oc1ccc3ncnc(Nc4ccc(Oc5ccn6ncnc6c5)c(C)c4F)c3c1)C2 , AUC(0-t) reported as 31200

Entry C=CC(=O)N1[C@@H]2CC[C@H]1C[C@@H](Oc1ccc3ncnc(Nc4ccc(Oc5ccc6c(c5)ncn6C)c(C)c4F)c3c1)C2 , AUC(0-t) reported as 44900

====

# Assay: in vivo
# Parameters: species or system C57 mice
# Experimental Context: female, C57, mouse, po, 50 mg/kg
Reported Property: half-life (h)
Give the quantity in h, number only.

Entry C=CC(=O)N1[C@@H]2CC[C@H]1C[C@@H](Oc1ccc3ncnc(Nc4ccc(Oc5ccc6c(c5)ncn6C)c(C)c4F)c3c1)C2 , half-life reported as 2.5

Entry C=CC(=O)N1[C@@H]2CC[C@H]1C[C@@H](Oc1ccc3ncnc(Nc4ccc(Oc5ccn6ncnc6c5)c(C)c4F)c3c1)C2 , half-life reported as 1.6

Entry C=CC(=O)N1[C@@H]2CC[C@H]1C[C@H](Oc1cc3c(Nc4ccc(Oc5ccn6ncnc6c5)c(C)c4)ncnc3cn1)C2 , half-life reported as 1.3

====

# Assay: in vivo
# Set-up: species or system C57 mice
# Experimental Context: female, C57, mouse, po, 50 mg/kg
Reported Property: Vd/F (L/kg)
Give the quantity in L/kg, number only.

Entry C=CC(=O)N1[C@@H]2CC[C@H]1C[C@@H](Oc1ccc3ncnc(Nc4ccc(Oc5ccc6c(c5)ncn6C)c(C)c4F)c3c1)C2 , Vd/F reported as 3.93

Entry C=CC(=O)N1[C@@H]2CC[C@H]1C[C@H](Oc1cc3c(Nc4ccc(Oc5ccn6ncnc6c5)c(C)c4)ncnc3cn1)C2 , Vd/F reported as 2.88

Entry C=CC(=O)N1[C@@H]2CC[C@H]1C[C@@H](Oc1ccc3ncnc(Nc4ccc(Oc5ccn6ncnc6c5)c(C)c4F)c3c1)C2 , Vd/F reported as 3.75

====

# Assay: in vivo
# Parameters: species or system SD rats
# Experimental Context: both sexes, SD, rat, po, 50 mg/kg
Reported Property: AUC(0-t) (ng·h/mL)
Give the quantity in ng·h/mL, number only.

Entry C=CC(=O)N1[C@@H]2CC[C@H]1C[C@@H](Oc1ccc3ncnc(Nc4ccc(Oc5ccn6ncnc6c5)c(C)c4F)c3c1)C2 [Example 10] , AUC(0-t) reported as 70800

====

# Assay: in vivo
# Parameters: species or system SD rats
# Experimental Context: both sexes, SD, rat, po, 50 mg/kg
Reported Property: Cmax (ng/mL)
Give the quantity in ng/mL, number only.

Entry C=CC(=O)N1[C@@H]2CC[C@H]1C[C@@H](Oc1ccc3ncnc(Nc4ccc(Oc5ccn6ncnc6c5)c(C)c4F)c3c1)C2 [Example 10] , Cmax reported as 19300

====

# Assay: in vivo
# Parameters: species or system SD rats
# Experimental Context: both sexes, SD, rat, po, 50 mg/kg
Reported Property: Vd/F
In your response, the unit should come after the numeric value.

Entry C=CC(=O)N1[C@@H]2CC[C@H]1C[C@@H](Oc1ccc3ncnc(Nc4ccc(Oc5ccn6ncnc6c5)c(C)c4F)c3c1)C2 , Vd/F reported as 2.95 L/kg

====

# Assay: in vivo
# Set-up: species or system C57 mice
# Experimental Context: female, C57, mouse, po, 50 mg/kg
# Description: C57 mice were used as test animals. After intragastric (i.g.) administration of example compounds to C57 mice, the plasma concentrations at different time points were measured by the LC/MS/MS method. The pharmacokinetic behavior of the compounds of the present disclosure in C57 mice was studied and their pharmacokinetic profiles were evaluated. Twenty-seven C57 mice, female, were evenly divided into 3 groups, provided by Beijing HFK Bioscience Co., Ltd., and intragastrically administered. […]
Reported Property: Cmax (ng/mL)
Give the quantity in ng/mL, number only.

Entry C=CC(=O)N1[C@@H]2CC[C@H]1C[C@@H](Oc1ccc3ncnc(Nc4ccc(Oc5ccc6c(c5)ncn6C)c(C)c4F)c3c1)C2 , Cmax reported as 12700

Entry C=CC(=O)N1[C@@H]2CC[C@H]1C[C@@H](Oc1ccc3ncnc(Nc4ccc(Oc5ccn6ncnc6c5)c(C)c4F)c3c1)C2 , Cmax reported as 14000

Entry C=CC(=O)N1[C@@H]2CC[C@H]1C[C@H](Oc1cc3c(Nc4ccc(Oc5ccn6ncnc6c5)c(C)c4)ncnc3cn1)C2 , Cmax reported as 11300
